concentration at 11 weeks listing for selected compounds.
# assay name: Quantification of XP and XN in plasma and cortex by UPLC-MS with or without glucuronidase digestion
# Assay type: in vivo, mice
# test settings: C57BL/6J, mouse, plasma; without glucuronidase digestion; daily oral XP 30, XN 60 mg/kg body weight; mean ± SEM; read-out: PLASMA concentration, Non-glucuronidated
Give the number; ng/mL is assumed, so skip it.

Query: If you can, please state the reported concentration at 11 weeks value of COc1cc(O)c(CC=C(C)C)c(O)c1C(=O)/C=C/c1ccc(O)cc1 [XN, xanthohumol] .
Reply: 13.2

Query: Likewise for COc1cc(O)c(CC=C(C)C)c(O)c1-c1cc(-c2ccc(O)cc2)n(C)n1 [XP] ?
Reply: 43.5

All figures here come from patent US12534439B2.
